Listing of recorded growth by entry.
Test system: ACHN renal
Test: NCI-60 one-dose screen, 48 h (100 = growth as untreated, 0 = no growth, -100 = all killed)
Conditions: 10 µM unless noted
About 83,000 compounds went through this panel and 20% of them were active in at least one assay; those are over-represented in the sample as a whole.
State the answer as a number, implicitly in %.

Compound	Unit symbol	Number
c1ccc2c(NCCCn3ccnc3)c3oc4ccccc4c3nc2c1	%	-7.51

Recorded growth of COC(=O)C(Cc1ccccc1)NS(=O)(=O)/N=C1\NC(=O)NC1=C(Cl)Cl (stereo not drawn) , please.
98.1

Please report the recorded growth for `COc1cc(/C=C/C(=O)c2ccc(C)cc2)ccc1Oc1nc(NCCO)nc(N2CCOCC2)n1` .
55.7

---

System: SF-268 CNS
Assay: NCI-60 one-dose screen, 48 h
Conditions: 10 µM unless noted
About 83,000 compounds went through this panel and 20% of them were active in at least one assay; those are over-represented in the sample as a whole. The source made the active and inactive calls. Rule for the calls: active = growth percent below 10; inactive = the rest.
Hi there, use one of these labels in your reply, thanks! active, inactive

Compound	Class
CN(C)c1ccc(/C=c2\sc3nc4ccccc4n3c2=O)cc1	inactive

For `COc1ccc(NC2=CC(=O)C(C)=C(C)C2=O)cc1` , what call appears in the results of this test?
inactive

Record lookup: outcome of this test for `C/C(=C(/c1ccc(Cl)cc1)c1ccc(OCCN)cc1)c1ccc(C)cc1` ?
inactive

// outcome(item) with item = `CNC(=O)c1cc(-c2ccc(NC(=O)Nc3ccc(N4CCOCC4)c(C(F)(F)F)c3)cc2)nc2cccnc12`
inactive

# lookup: test call for `CC(=O)Nc1cc(F)cc(-c2ccc3[nH]cc(-c4ccccc4)c3n2)c1`
inactive

Assay result, entry `COc1cccc(NC2=CC(=O)C(C)=C(C)C2=O)c1` — outcome?
inactive

Write down the call the test reported for this compound. Item: `O=[N+]([O-])c1ccc(O)c2ncccc12`
inactive

Identify the outcome logged in this assay for the compound shown: `C=CCSc1ccc2c(c1)C(N1CCNCC1)=Nc1ccccc1O2`
inactive

How was `O=C(N/N=C/c1ccc(Cl)s1)c1[nH]c2ccc(Br)cc2c1-c1ccccc1` classified in this test?
inactive

# fetch the recorded call for `Clc1ccc2c(NCCCn3ccnc3)c3oc4ccc(Cl)cc4c3nc2c1` here
inactive

Call for entry `O=c1/c(=C\c2ccc(-c3ccccc3)o2)sc2nc(-c3ccccc3)nn12` :
inactive

Status in this test for `CC1=C(C)C(=O)C(Nc2ccccc2)=C(Cl)C1=O` ?
inactive

Given `CN1CCN(Cc2ccc(NC(=O)c3cncc(C#Cc4cnc5ccc(N6CCSCC6)nn45)c3)cc2C(F)(F)F)CC1` , state the outcome it received in this test.
active

What outcome does the record of this test show for `NS(=O)(=O)c1ccc(Nc2nc(SCC(=O)c3ccc(Cl)cc3)nc3ccccc23)cc1` ?
inactive

Short answer needed: outcome of this test for `CCCSc1nc(Nc2ccc(/C(C)=N\NC(N)=S)cc2)c(C#N)c(-c2ccc(OC)cc2)n1` ?
inactive

// outcome(item) with item = `O=C1Nc2ccc(Cl)cc2/C1=C/c1ccc(OCC(=O)c2ccc(Br)cc2)cc1`
inactive

Which outcome did this test record for the compound `COc1cc(/C=C/C(=O)c2cc(OC)c(OC)c(OC)c2)ccc1OCc1ccc(F)cc1` ?
inactive

Called result for `O=c1[nH]c2ccc(Cl)cc2cc1CSc1ccccc1Nc1nccc(-c2ccc(Cl)cc2)n1`
inactive

Which outcome was assigned to `CN(C)CCCNc1c2ccccc2nc2c1oc1ccc(Cl)cc12` in this test?
inactive

What classification did `N#Cc1c(-c2ccc(Cl)cc2)nc(SCc2ccc(F)cc2)nc1N1CCNCC1` end up with in this test?
inactive

How did this test come out for `CCOC(=O)c1sc(N)c(C(=O)OCC)c1C` ?
inactive

Record request — test call for `N[C@@H](Cc1cn(-c2ccnc3ccccc23)nn1)C(=O)O`
inactive

---

Test system: SR leukemia
Test: NCI-60 one-dose screen, 48 h (100 = growth as untreated, 0 = no growth, -100 = all killed)
Conditions: 10 µM unless noted
About 83,000 compounds went through this panel and 20% of them were active in at least one assay; those are over-represented in the sample as a whole.
Assay metric: growth (%)
Write the value in % as a bare number.

Answered cases to consult:
> print(dat)
                                 mol.smiles  system.under.test  number
1  C#Cc1nc(C2=C(C)C(=O)/C(=N/OC(C)=O)C2)cs1        SR leukemia    13.4
2  COc1ccc(C(=O)/C=C/c2ccc(Oc3nc(NCCO)nc(N4CCOCC4)n3)c(OC)c2)cc1        SR leukemia    5.16
3  COc1ccc(/C=C/C(=O)c2ccc(NC(=O)CSc3nnc(-c4ccc5nc(-c6ccc(Cl)cc6)[nH]c5c4)o3)cc2)cc1        SR leukemia    80.5
4  NS(=O)(=O)c1cccc(Nc2nc(SCC(=O)c3ccc(Br)cc3)nc3ccccc23)c1        SR leukemia    37.1

Suppose we examine the molecule `O=C(CCCN1C(=O)/C(=C/c2ccccc2F)SC1=S)N1CCOCC1` ; what growth value has been reported?
68

Need growth of `Fc1ccc(-c2cc3nc(C(Cl)Cl)nc(-c4ccccc4)n3n2)cc1` , thanks.
3.78

Given the molecule `O=C(N/N=C/c1ccc([N+](=O)[O-])s1)c1[nH]c2ccc(Br)cc2c1-c1ccccc1` , what is its reported growth?
7.33

growth for `O=C(N/N=C/c1ccc[nH]1)c1[nH]c2ccc(Br)cc2c1-c1ccccc1` ?
1.89

Please look up its growth: `C=CCn1c(SCC(=O)c2ccc(Br)cc2)nnc1-c1c[nH]c2ccccc12`
88.7

---

Tested on: OVCAR-8 ovarian
Experiment: NCI-60 one-dose screen, 48 h (100 = growth as untreated, 0 = no growth, -100 = all killed)
Details: 10 µM unless noted
This is part of a sample that, as a whole, favours compounds with a hit. Of some 83,000 tested, about 20% had one in any assay.
Class TRUE: growth at least 90%. Class FALSE: growth below 90%.

> print(dat)
                                   molecule  class
1  C#Cc1nc(C2=C(C)C(OC(=O)CCC(=O)O)CC2)cs1 (stereo not given)   TRUE
2  NC(=O)c1c(NC(=O)c2ccc(C3CCCCC3)cc2)sc2c1CCC(=O)C2  FALSE
3  N#Cc1c(-c2ccc(Cl)cc2)nc(SCc2ccccc2)nc1N1CCNCC1  FALSE

Now look at this entry.
Item `CNC(=O)c1cc(-c2ccc(NC(=O)Nc3ccc(N4CCN(C)CC4)c(C(F)(F)F)c3)cc2)nc2cccnc12` with growth of 90% or above?
FALSE

---

Test system: SK-OV-3 ovarian
Experiment: NCI-60 one-dose screen, 48 h
Conditions: 10 µM unless noted
The panel holds about 83,000 compounds, 20% with a hit somewhere; the sample as a whole holds those more often. The source made the active and inactive calls. The calls were made as follows: active = growth percent below 10; inactive = the rest.
Returns: one label drawn from active, inactive

> print(dat)
                                   compound     class
1  O=C(O)CCCCCN1C(=O)/C(=C/c2ccc(O)c(O)c2)SC1=S  inactive
2  COc1cc(/C=C/C(=O)c2cc(OC)c(OC)c(OC)c2)ccc1OCc1ccccc1  inactive
3  Cc1c(NC(=O)CSc2nc3sc4c(c3c(=O)n2-c2ccc(Cl)cc2)CCCC4)c(=O)n(-c2ccccc2)n1C  inactive

State the result this test recorded for `CS(=O)(=O)c1ccc(-c2nc3ccccn3c2C=Nc2ccc(Cl)cc2)cc1` .
inactive

Can you look up the reported call for CCCC(=O)NC(c1cccnc1)c1cc(C)c2cccnc2c1O (stereo not given) for me?
inactive

Query: recorded result category for `Cn1cc(-c2cc(N)n3nc(-c4cn(C)c5ccc(F)cc45)cc3n2)c2cc(F)ccc21` in this test
inactive

Called result for `COc1ccc(/C=C2\SC(=Nc3cc(C)[nH]n3)NC2=O)cc1`
inactive

Hey, what did the test say about CCCC(=O)NC(c1cccc(N(C)C)c1)c1cc(C)c2cccnc2c1O (stereo not given) ?
inactive

Query: recorded result category for `Nc1c(C(=O)Nc2ccc(Cl)cc2)sc2nc(-c3cnccn3)cc(-c3cccs3)c12` in this test
inactive

---

# growth annotations
System: A498 renal
Test: NCI-60 one-dose screen, 48 h (100 = growth as untreated, 0 = no growth, -100 = all killed)
Conditions: 10 µM unless noted
Procedure: Growth inhibition of the A498 human tumor cell line is measured as a screen for anti-cancer activity. Cells are grown in 96 well plates and exposed to the test compound for 48 hours. Compounds are tested at a single concentration, which is 10^-5 M for most compounds. The reported endpoint is percent growth (GI% or GIPRCNT), where numbers from 0 - 100% represent growth inhibition, and numbers from -100% - 0 represent cell death. For example, a value of 40 represents 60% growth inhibition. […]
The panel holds about 83,000 compounds, 20% with a hit somewhere; the sample as a whole holds those more often. Calls of active or inactive are those of the source. The calls were made as follows: active = growth percent below 10; inactive = the rest.

> print(dat)
                                   molecule            result
1  COc1ccc(-c2cc(C(=O)N=Nc3c(O)[nH]c4ccccc34)c3ccccc3n2)cc1OC  82.1% (inactive)

Param item = `O=C1/C(=C/C2=Cc3ccccc3OC2)SC(=S)N1c1ccc(F)cc1` ; retrieve measured growth.
71.6% (inactive)

Which growth reading was recorded for the molecule `Cc1nc2cnc(N)c(C#Cc3cncc(C(=O)Nc4ccc(Cl)c(C(F)(F)F)c4)c3)c2nc1C` ?
55.4% (inactive)

Which growth value is on record for `NS(=O)(=O)c1ccc(Nc2nc(SCC(=O)c3ccc(Cl)cc3)nc3ccccc23)cc1` ?
74.8% (inactive)

Can you look up the measured growth of CN1C(=O)N(c2ccccc2)C2N=C(N/N=C/c3ccccc3)SC21 (stereo unspecified) for me?
-18.8% (active)

Value lookup for growth; key = `O=C(O)CCCCCN1C(=O)/C(=C/c2ccc(O)c(O)c2)SC1=S`
101% (inactive)

growth lookup needed for COc1ccc([C@@H]2c3[nH]c4ccccc4c3CC3C(=O)N(C4CCN(Cc5c(F)cccc5F)CC4)CC(=O)N32)c(OC)c1 (stereo partly specified) , thanks.
29.4% [5.26 µM] (inactive)

Name the recorded growth for `CCOC(=O)c1c(NC(=O)c2cccc(C(F)(F)F)c2)sc2cc(O)ccc12` .
77.1% (inactive)

Which growth is reported for this molecule? `Fc1ccc(-c2cc3nc(C(Cl)Cl)nc(-c4ccc(Cl)cc4)n3n2)cc1`
-38.8% (active)

Returns the measured growth for the input molecule. Input: `Oc1c(Cl)cc(Cl)c2ccc(CN3CCCCC3)nc12`
49.9% (inactive)

Name the reported growth value associated with the molecule `O=C(CSc1nc2sc3c(c2c(=O)n1-c1ccc(Cl)cc1)CCCC3)N/N=C/c1ccc(F)cc1`
96.8% (inactive)
